target: Streptavidin (Streptomyces avidinii) (UniProt P22629); assay: compounds binding control protein streptavidin – biophysical, small-molecule microarray, 635/667 nm fluorescence, artefact control for SMM compound annotation, primary screen (AID 1147); conditions: higher = more signal;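 further: signal reflects streptavidin binding to arrayed compounds as a control protein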
Sequence (P22629 whole entry, looked up): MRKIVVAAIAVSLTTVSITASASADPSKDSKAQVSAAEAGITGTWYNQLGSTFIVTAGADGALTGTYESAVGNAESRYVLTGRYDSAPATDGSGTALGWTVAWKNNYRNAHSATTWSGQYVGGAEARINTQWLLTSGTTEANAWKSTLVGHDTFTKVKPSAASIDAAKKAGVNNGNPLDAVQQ
Give True when the value for composite z-score is at least 0.2. Give False when it is less.

Exam item: Confirm if composite z-score reported for the molecule "COC(=O)[C@@]1(Cc2ccccc2)[C@H]2c3cc(C(=O)N(C)C)n(CCc4c[nH]c5ccc(O)cc45)c3C[C@H]2CN1C(=O)c1ccccc1" is 0.2 or above.
Marked response: False

Exam item: Lookup "COC(=O)[C@@]1(Cc2ccc(F)cc2)[C@H]2c3cc(C(=O)N(C)C)n(Cc4cc(C)n(C)n4)c3C[C@H]2CN1C(=O)c1ccccc1"
Marked response: True

Exam item: Next molecule up: "CC(C)Cc1ccc(CN2CC[C@@H](N)C2)cc1"
Marked response: False

Exam item: Similarly, "COc1ccc([Si](C)(C)[C@@H]2[C@@H](CC(=O)N3Cc4ccccc4C[C@H]3CO)O[C@]3(C(=O)N(Cc4cccc(N5CCC5=O)c4)c4ccccc43)[C@H]2C)cc1" ?
Marked response: True

Exam item: Proceed to CCCC1(C(=O)OC)C=C2C(=C(c3ccccc3)C(=O)C2C)CN1 (configuration not stated)
Marked response: True

Exam item: Thanks! And "O=C(NCCN1CCOCC1)[C@@H]1c2ccccc2C(=O)N(Cc2cc(C(F)(F)F)cc(C(F)(F)F)c2)[C@H]1c1ccc(CO)cc1" ?
Marked response: False

Exam item: Lookup "COC(=O)[C@@]1(Cc2ccc(OC)cc2)[C@H]2c3cc(C(=O)N4CCCC4)n(CCCNc4ncc(C(F)(F)F)cc4Cl)c3C[C@H]2CN1C(=O)c1ccccc1"
Marked response: True

---

system: Neuregulin-1 EGF-like domain; assay: small molecules binding NRG1 EGF domain – biochemical, small-molecule microarray, 635 nm fluorescence, primary screen (AID 1081); conditions: higher = more signal;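 further: binding of the protein to compounds printed on small-molecule microarray slides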
Assignment: determine reported composite z-score for the given molecules.
Give a plain numeric answer without units written out.

Exam item: Which composite z-score reading was recorded for the molecule "COc1ccccc1CN1C(=O)c2ccccc2[C@@H](C(=O)NCc2ccccc2)[C@@H]1c1ccc(CO)cc1" ?
Marked response: 1.26

Exam item: Subsequent entry: OCC1C=C(/C=C/c2ccccc2)CN1Cc1ccccc1Br (stereo not drawn)
Marked response: 0.331

Exam item: And for "COC(=O)[C@@]1(Cc2ccccc2)[C@H]2c3cc(C(=O)N4CCCC4)n(Cc4ccc(O)c(OC)c4)c3C[C@H]2CN1C(=O)c1ccccc1" ?
Marked response: 1.39

Exam item: Also "C=C(CCCC)/C(=C/C[C@H](OC(C)=O)c1ccccc1OCCO)c1cnc2ccccc2c1" , if possible.
Marked response: 1.04

Exam item: Cool, now CC1CC/C=C\[C@H]2OC34C=CCN(c5ccc6ccccc6c5)C(=O)[C@H]3N(CCO)C(=O)[C@@H]4C2C(=O)O1 (stereo partly drawn)
Marked response: 0.868

Exam item: Check "CCOC(=O)C[C@H]1[C@H](OC(=O)c2ccc(-c3ccccc3)cc2)[C@@H](NC(=O)c2ccccc2)c2cc(OCCCO)ccc2N1C(=O)c1ccc2ccccc2n1" too.
Marked response: 0.507

Exam item: Item: C=CCN(Cc1ccccc1)C(=O)C(c1cccs1)N(C(=O)/C=C\C(=O)O)c1ccc(CCOCCO)cc1 (stereo not drawn)
Marked response: 0.0305

Exam item: What do you get for "COc1ccc([C@H]2C[C@H]3C(Br)=C[C@@]2(CO)C(=O)[C@]32CO2)cc1" ?
Marked response: -0.333

---

target: Dickkopf-related protein 1 (Homo sapiens); assay: small molecules binding DKK1 protein – biochemical, small-molecule microarray, 635 nm fluorescence scan, primary screen (AID 1106); details: higher = more signal;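 further: score merges emission near 667 nm with signal to noise over three replicate slides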
Answer each item with its documented composite z-score.

Exam item: Name the recorded composite z-score for "COC(=O)[C@@]1(Cc2ccccc2)[C@H]2c3cc(C(=O)N4CCCC4)n(Cc4ccc(O)c(OC)c4)c3C[C@H]2CN1C(=O)c1ccccc1" .
Marked response: -0.817

Exam item: Another molecule to check: "[N-]=[N+]=Nc1ccccc1C[C@@]1(C(=O)N2CCCCC2)N=C(c2ccc(OCCCO)cc2)O[C@@H]1c1ccccc1"
Marked response: -0.174

Exam item: Next up: "Cc1ccc([C@H]2C(C(=O)O)=CCN2S(=O)(=O)c2ccc(C)cc2)cc1"
Marked response: -0.345

Exam item: Try "CC(C)NC(=O)[C@@H]1c2ccccc2C(=O)N(C(C)C)[C@H]1c1ccc(CO)cc1" next.
Marked response: -1.72

Exam item: Then this molecule: "C=C(C(=O)CC[C@H](OC(C)=O)c1ccccc1OCCO)C(C)C"
Marked response: -0.284

Exam item: "C=CC[C@@]1(C(=O)N2CCCCC2)N=C(c2ccc(OCCCO)cc2)O[C@@H]1c1ccccc1CN=[N+]=[N-]" ?
Marked response: -0.187

Exam item: Continue with "NCCCCCNC(=O)[C@H]1C[C@H]2C(=O)N[C@@H](Cc3ccccc3)C(=O)N2[C@H]1c1cccc(OCCO)c1"
Marked response: 0.4

Exam item: Queued: "CCCC=C(CCC)[C@@H](NC(=O)OCC(C)C)c1ccccc1"
Marked response: -0.0115

---

assay: probe aEGFR binding to arrayed compounds – biochemical, biotinylated probe, 635/667 nm fluorescence, primary screen (AID 1097); settings: small-molecule microarray, higher = more signal;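 further: probe is a biotinylated anti-EGFR antibody binding compounds printed on slides; score combines fluorescence near 667 nm and signal to noise of each spot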
VALUE_KIND: composite z-score
// return a plain number; no unit text

Exam item: Please give the measured composite z-score for this compound: OCC1C=C(/C=C/c2ccccc2)CN1Cc1ccccc1Br (stereo not drawn)
Marked response: 0.0339

Exam item: Please give the result for "CO[C@H]1O[C@H](CO)[C@@H](OC(=O)Nc2ccccc2)[C@@H]2OC(=O)[C@@H](Cc3ccc4ccccc4c3)C/C=C/C[C@H](Cc3ccc4ccccc4c3)C(=O)O[C@@H]12" too.
Marked response: -0.0449

Exam item: Input "CO[C@H]1O[C@H](CO)[C@@H](OC(=O)Nc2ccc(Br)cc2)[C@@H]2OC(=O)[C@H](Cc3cccc(Br)c3)C/C=C/C[C@@H](Cc3cccc(Br)c3)C(=O)O[C@@H]12"
Marked response: -0.0828

Exam item: And the next one, "C[N+](C)(C)CCCCCCNC(=O)[C@H]1C[C@H]2C(=O)N[C@@H](Cc3ccccc3)C(=O)N2[C@H]1c1cccc(OCCO)c1" ?
Marked response: -0.0152

Exam item: Subsequent entry: "COC(=O)[C@@]1(Cc2ccc(OC)cc2)[C@H]2c3cc(C(=O)N4CCCC4)n(Cc4nc5ccccc5[nH]4)c3C[C@H]2CN1C(=O)c1ccccc1"
Marked response: 0.225

Exam item: Now consider "COc1ccc([Si](C)(C)[C@@H]2[C@@H](CCn3cc(CCO)nn3)O[C@]3(C(=O)N(Cc4cccc(N5C(=O)c6cccc7cccc5c67)c4)c4ccccc43)[C@H]2C)cc1" .
Marked response: -0.125

Exam item: Same lookup for COc1ccc(C(O)C2C=CC3C(=O)N(C)C(=O)C3N2NC(=O)OC(C)(C)C)c2ccccc12 (stereo not drawn) , please.
Marked response: 0.0185

Exam item: Repeat for the following compound: CC1CC/C=C\[C@H]2OC34C=CCN(Cn5nnc6ccccc65)C(=O)[C@H]3N(CCCCCO)C(=O)[C@@H]4C2C(=O)O1 (stereo partly drawn)
Marked response: -0.18

Exam item: Next up: "COc1cc(CO)cc(I)c1O[C@H]1C=C(C(=O)NCCO)C[C@@H](NC[C@@H]2CCCO2)[C@@H]1O"
Marked response: -0.0033

Exam item: Proceed to "COC(=O)c1c(CC[C@@H](CO)NC(=O)NCCc2c[nH]c3ccccc23)oc(C(=O)Cc2ccccc2)c1C(=O)OC"
Marked response: -0.126

Exam item: Entry "NC(=O)NCC#Cc1ccc2c(c1)[C@]1(C(=O)N2)[C@H](C(=O)O)[C@H]2C(=O)O[C@H](c3ccccc3)[C@H](c3ccccc3)N2[C@@H]1c1ccc(O)cc1" please
Marked response: 0.0156

Exam item: What about this compound? "COCCCNC(=O)[C@@]1(Sc2ccc(C)cc2)CC(=O)N(Cc2ccccc2Cl)[C@@H]1c1ccc(CO)cc1"
Marked response: -0.0874

Exam item: # iterate: "COCCOC(=O)N1C(=O)[C@@]2(c3cc(C#CC4(O)CCCCCC4)ccc31)[C@H](C(=O)Nc1nc3ccccc3s1)[C@H]1C(=O)O[C@H](c3ccccc3)[C@H](c3ccccc3)N1[C@@H]2c1ccccc1OCCO"
Marked response: 0.0857

---

assay: probe aLefty2 binding to arrayed compounds – biochemical, biotinylated probe, 635/667 nm fluorescence, primary screen (AID 1094); conditions: small-molecule microarray, higher = more signal;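 further: score merges spot fluorescence near 667 nm with spot signal-to-noise ratio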
VALUE_KIND: composite z-score
Lab note: write the figure by itself, no unit.

Exam item: Any idea what composite z-score was measured for O=C1OCCC=C[C@H]2OC34C=CCN(c5ccc(Cl)cc5)C(=O)[C@H]3N(CCCO)C(=O)[C@@H]4C12 (some centres undefined) ?
Marked response: 0.0058

Exam item: Further, for "C=CC[C@@]1(C(=O)N2CCCCC2)N=C(c2ccc(OCCCO)cc2)O[C@@H]1c1ccccc1CN=[N+]=[N-]" ?
Marked response: 0.178

Exam item: Let us now turn to "C=CC[C@]1(C(=O)NCc2ccccc2)N=C(c2ccc(OCCCO)cc2)O[C@H]1c1ccccc1CN=[N+]=[N-]"
Marked response: 0.0634

Exam item: Repeat with "COC(=O)C[C@H]1O[C@@H](CCc2ccccc2)[C@@H](C)[C@@H]1[Si](C)(C)c1ccc(OC)cc1"
Marked response: -0.253
